Literature-derived IC50 for UniProtKB P06213 follows.
ASSAY METRIC: IC50 (nM)

P: CN(Cc1cccnc1)Cc1ccc2c(c1)[nH]/c(=N\C(=O)c1ccc(-c3cn[nH]c3)s1)n2CC(C)(C)O
Q: CN1CCN(Cc2ccc(NC(=O)c3cc(-c4ccc5c(c4)OCO5)cnc3Cl)cc2)CC1
# input Pick one: P or Q . Which one has the lower reported IC50? Give the label of your selection.
# output P
(P: 310 nM, Q: 27300 nM)

P: CC(C)(O)Cn1/c(=N/C(=O)c2ccc(-c3cn[nH]c3)s2)[nH]c2cc(CNCc3ccccc3)ccc21
Q: COc1cc(N2CCC(N3CCCC3)CC2)ccc1Nc1ncc(Cl)c(Nc2ccccc2P(C)(C)=O)n1
R: CN1CCN(c2ccc(Nc3ncc4ccc(-c5ccccc5)n4n3)cc2)CC1
# input Hello, I need these entries ordered by IC50, highest reading first. Thanks! Your task in answering is to list the labels in the requested order.
# output P, Q, R
(P: 480 nM, Q: 85.3 nM, R: 35 nM)
